# assayProcedure: Antagonist activity assessed by differentiation of 1,25-D3-induced HL60 cells
pIC50: −log10 of the molar value.

{"compound": "C=C1/C(=C\\C=C2/CCC[C@]3(C)[C@@H]([C@H](C)C[C@H]4C[C@](C)(O)C(=O)N4CCc4ccccc4)CC[C@@H]23)C[C@@H](O)C[C@@H]1O", "operator": "=", "pIC50": 6.68}
{"compound": "C=C1/C(=C\\C=C2/CCC[C@]3(C)[C@@H]([C@H](C)C[C@H]4C[C@@](C)(O)C(=O)N4CCc4ccccc4)CC[C@@H]23)C[C@@H](O)C[C@@H]1O", "operator": "<", "pIC50": 5.70}
{"compound": "C=C1/C(=C\\C=C2/CCC[C@@]3(C)C2CC[C@@H]3[C@H](C)C[C@H]2C[C@](C)(O)C(=O)N2C(C)C)C[C@@H](O)C[C@@H]1O (some centres undefined)", "operator": "<", "pIC50": 6.00}
{"compound": "C=C1/C(=C\\C=C2/CCC[C@@]3(C)C2CC[C@@H]3[C@H](C)C[C@H]2C[C@](C)(O)C(=O)N2Cc2ccc(OC)cc2)C[C@@H](O)C[C@@H]1O (some centres undefined)", "operator": "=", "pIC50": 6.18}

====

# assayProcedure: Antagonist activity assessed by differentiation of 1,25-D3-induced HL60 cells
pIC50: −log10 of the molar value.
measuredQuantity: pIC50

{"smilesData": "C=C1/C(=C\\C=C2/CCC[C@]3(C)[C@@H]([C@H](C)C[C@H]4C[C@](C)(O)C(=O)N4Cc4ccccc4)CC[C@@H]23)C[C@@H](O)C[C@@H]1O", "testResult": 6.15}
{"smilesData": "C=C1/C(=C\\C=C2/CCC[C@]3(C)[C@@H]([C@H](C)C[C@H]4C[C@](C)(O)C(=O)N4CCCc4ccccc4)CC[C@@H]23)C[C@@H](O)C[C@@H]1O", "testResult": 5.66}
{"smilesData": "C=C1/C(=C\\C=C2/CCC[C@]3(C)[C@@H]([C@H](C)C[C@H]4C[C@](C)(O)C(=O)N4CCCCc4ccccc4)CC[C@@H]23)C[C@@H](O)C[C@@H]1O", "testResult": 6.41}
